Hey, just so you know, these numbers are from patent US12492188B2.

- assayed-system: human TLR9 (Homo sapiens)
- Construct: host or cells: HEK-Blue cells (HEK293-derived reporter line)
- assay-remarks: TLR9 inhibition reporter assay (HEK-Blue cells, secreted embryonic alkaline phosphatase reporter)
- Type: cell-based
- assay-conditions: HEK-Blue cells overexpressing human TLR9, stimulated with ODN2006 5 nM, 22 hour incubation, reporter readout
assay-readout: IC50 (nM)
Entry rule: numbers only, all in nM.

Below: 4 compounds and their reported IC50.
compound	IC50 (nM)
Cc1cc(C2CCN(C3CCN(CC(C)C)CC3)CC2)cc2[nH]c(-c3ccc(S(=O)(=O)c4ccccc4)cc3)nc12 [Example 75, tris(2,2,2-trifluoroacetate)]	63
COc1ccc(-c2nc3c(C)cc(C4C[C@H]5CC[C@@H](C4)N5C4CCN(C(C)C)CC4)cc3n2C)cc1OC (mixture of isomers) [Example 21]	24
CC(C)N1C2CCC1CC(N1CCC(c3ccc4nc(-c5ccc(S(C)(=O)=O)cc5)[nH]c4c3F)CC1)C2 (single isomer, unassigned) [Example 94]	73
CN(C)C1CCN(Cc2ccc(-c3ccc4nc(-c5ccccc5)n(C)c4c3)cc2)CC1 [Example 374]	280

Q: I have this compound here, Cn1c(-c2ccc(S(C)(=O)=O)cc2)nc2c(F)cc(-c3ccc(CN4CCC(N5CCCC5)CC4)cc3)cc21 [Example 409] , and I need its recorded IC50.
Ans: 5.3

----------
Below: a set of entries, each annotated with reported IC50.
- assayed-system: UniProt:Q9NYK1
- Sequence (Q9NYK1 27-1049): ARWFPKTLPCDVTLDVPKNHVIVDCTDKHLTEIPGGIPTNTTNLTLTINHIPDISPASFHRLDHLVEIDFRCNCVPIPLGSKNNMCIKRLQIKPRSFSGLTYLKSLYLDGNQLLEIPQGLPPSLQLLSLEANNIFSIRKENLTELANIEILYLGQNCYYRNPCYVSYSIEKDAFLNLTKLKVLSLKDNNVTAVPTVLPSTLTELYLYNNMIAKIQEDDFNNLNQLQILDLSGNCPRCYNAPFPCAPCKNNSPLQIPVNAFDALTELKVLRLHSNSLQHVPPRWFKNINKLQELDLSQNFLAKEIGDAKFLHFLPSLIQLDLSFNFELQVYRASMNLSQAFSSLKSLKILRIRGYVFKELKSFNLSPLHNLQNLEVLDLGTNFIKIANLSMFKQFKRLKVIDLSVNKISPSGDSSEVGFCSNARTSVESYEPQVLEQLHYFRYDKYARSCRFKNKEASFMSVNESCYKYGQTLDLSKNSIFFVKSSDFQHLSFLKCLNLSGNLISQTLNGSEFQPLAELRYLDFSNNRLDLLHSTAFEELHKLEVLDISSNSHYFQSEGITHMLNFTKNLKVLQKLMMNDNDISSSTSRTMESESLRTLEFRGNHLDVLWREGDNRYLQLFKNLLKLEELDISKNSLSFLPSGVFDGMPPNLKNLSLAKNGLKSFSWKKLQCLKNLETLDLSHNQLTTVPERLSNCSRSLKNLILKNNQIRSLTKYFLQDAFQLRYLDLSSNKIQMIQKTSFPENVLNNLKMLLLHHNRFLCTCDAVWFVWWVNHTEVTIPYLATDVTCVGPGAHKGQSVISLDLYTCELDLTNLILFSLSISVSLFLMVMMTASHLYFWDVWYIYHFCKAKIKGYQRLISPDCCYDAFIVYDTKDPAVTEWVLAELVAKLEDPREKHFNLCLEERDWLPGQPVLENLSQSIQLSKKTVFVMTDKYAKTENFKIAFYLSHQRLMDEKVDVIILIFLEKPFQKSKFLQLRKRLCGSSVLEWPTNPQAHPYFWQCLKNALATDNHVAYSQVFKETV
- assay-remarks: TLR7 inhibition reporter assay (HEK-Blue cells, secreted embryonic alkaline phosphatase reporter)
- assay-conditions: HEK-Blue cells overexpressing human TLR7, stimulated with gardiquimod 7.5 μM; read-out: TLR 7 IC50
- Excerpt: TLR7/8/9 Inhibition Reporter Assays HEK-Blue™-cells (Invivogen) overexpressing human TLR7, TLR8 or TLR9 receptors were used for screening inhibitors of these receptors using an inducible SLAP (secreted embryonic alkaline phosphatase) reporter gene under the control of the […] minimal promoter fused to five NF-κB and AP-1-binding sites. […]

Below: 5 compounds and their reported IC50.
compound	IC50
Cc1cc(-c2ccc(C3CCN(C4CCN(C)CC4)CC3)cc2)cc2c1nc(-c1ccc(S(C)(=O)=O)cc1)n2C	1.5 µM
Cc1cc(C2CCN(C3CC4CCC(C3)N4C(C)C)CC2)cc2c1nc(-c1ccc(S(C)(=O)=O)cc1)n2C (single isomer, unassigned) [Example 84]	18.6 µM
CCOP(=O)(OCC)c1ccc(-c2nc3c(C)cc(C4CCN(C5CCN(C(C)C)CC5)CC4)cc3n2C)cc1	> 50 µM
CC(C)CN1CCC(N2CCC(c3cc4c(cc3F)nc(-c3ccc(S(C)(=O)=O)cc3)n4C)CC2)CC1	7.8 µM
CC(C)N1CCC(N2CCC(c3ccc4nc(-c5ccc(S(C)(=O)=O)cc5)[nH]c4c3F)CC2)CC1	> 50 µM

Next compound, please.
Q: I have this compound here, CS(=O)(=O)c1ccc(-c2nc3c(F)cc(C4CCN(C5CC6CCC(C5)N6CC5CC5)CC4)cc3n2C2CC2)cc1 (single isomer, unassigned) [Example 324] , and I need its recorded IC50.
Ans: 1.5 µM

----------
- assayed-system: human TLR9 (Homo sapiens, UniProt Q9NR96)
- Construct: host or cells: HEK-Blue cells (HEK293-derived reporter line)
- Sequence (Q9NR96 26-1032): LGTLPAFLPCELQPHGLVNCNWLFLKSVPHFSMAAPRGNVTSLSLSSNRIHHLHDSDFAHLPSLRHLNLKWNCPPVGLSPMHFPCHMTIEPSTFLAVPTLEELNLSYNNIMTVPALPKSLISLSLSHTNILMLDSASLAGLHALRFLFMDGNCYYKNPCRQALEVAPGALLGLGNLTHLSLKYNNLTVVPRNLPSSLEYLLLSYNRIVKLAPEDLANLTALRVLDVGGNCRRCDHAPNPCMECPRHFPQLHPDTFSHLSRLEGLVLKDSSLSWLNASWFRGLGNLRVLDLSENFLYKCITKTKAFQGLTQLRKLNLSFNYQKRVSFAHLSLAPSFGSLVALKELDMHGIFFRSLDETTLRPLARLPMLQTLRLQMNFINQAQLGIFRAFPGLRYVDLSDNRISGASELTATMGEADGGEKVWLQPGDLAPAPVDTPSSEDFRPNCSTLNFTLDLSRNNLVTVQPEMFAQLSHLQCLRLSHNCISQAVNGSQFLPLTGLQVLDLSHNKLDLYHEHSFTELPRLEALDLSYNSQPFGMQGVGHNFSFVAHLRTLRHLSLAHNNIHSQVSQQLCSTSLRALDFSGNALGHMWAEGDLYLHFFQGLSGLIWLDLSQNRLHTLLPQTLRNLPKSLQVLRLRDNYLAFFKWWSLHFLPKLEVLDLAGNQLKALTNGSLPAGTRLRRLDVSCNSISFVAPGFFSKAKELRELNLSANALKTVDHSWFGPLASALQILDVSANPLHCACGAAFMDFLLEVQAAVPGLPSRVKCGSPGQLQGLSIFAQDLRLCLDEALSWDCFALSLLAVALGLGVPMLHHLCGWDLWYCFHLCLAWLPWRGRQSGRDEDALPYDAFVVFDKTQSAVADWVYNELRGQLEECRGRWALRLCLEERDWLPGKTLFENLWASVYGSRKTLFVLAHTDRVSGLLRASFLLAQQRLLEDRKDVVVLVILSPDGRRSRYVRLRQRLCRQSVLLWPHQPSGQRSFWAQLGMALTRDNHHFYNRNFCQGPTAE
- assay-remarks: TLR9 inhibition reporter assay (HEK-Blue cells, secreted embryonic alkaline phosphatase reporter)
- Type: cell-based
- assay-conditions: HEK-Blue cells overexpressing human TLR9, stimulated with ODN2006 5 nM; read-out: TLR 9 IC50
- From the text: TLR7/8/9 Inhibition Reporter Assays HEK-Blue™-cells (Invivogen) overexpressing human TLR7, TLR8 or TLR9 receptors were used for screening inhibitors of these receptors using an inducible SLAP (secreted embryonic alkaline phosphatase) reporter gene under the control of the […] minimal promoter fused to five NF-κB and AP-1-binding sites. […]
assay-readout: IC50 (nM)
Entry rule: numbers only, all in nM.

compound	assayed-system	assay-readout	number
Cn1c(-c2ccc(S(C)(=O)=O)cc2)nc2cc(C3CCN(C4CC5CCC(C4)N5CC4CC4)CC3)c(F)cc21 (single isomer, unassigned) [Example 250]	human TLR9 (Homo sapiens, UniProt Q9NR96)	IC50	110

Q: human TLR9 (Homo sapiens, UniProt Q9NR96) / IC50 / COc1ccc(-c2nc3c(C)cc(C4CC5CCC(C4)N5C4CCN(C5CC5)CC4)cc3n2C)cc1OC (centres unmarked) [Example 51] : value?
Ans: 130

Q: human TLR9 (Homo sapiens, UniProt Q9NR96) / IC50 / COc1ccc(-c2nc3c(C)cc(C4CCN(C5CC6(C5)CN(CC5CC5)C6)CC4)cc3n2C)cc1OC [Example 48] : value?
Ans: 19

Q: human TLR9 (Homo sapiens, UniProt Q9NR96) / IC50 / Cn1c(-c2ccc(S(C)(=O)=O)cc2)nc2cc(F)c(C3CCN(C4CCN(C5COC5)CC4)CC3)cc21 [Example 225] : value?
Ans: 5350

Q: human TLR9 (Homo sapiens, UniProt Q9NR96) / IC50 / Cn1c(-c2ccc(S(C)(=O)=O)cc2)nc2cc(C3CCN(C4CCN(CC5CC5)CC4)CC3)c(F)cc21 [Example 242] : value?
Ans: 158

Q: human TLR9 (Homo sapiens, UniProt Q9NR96) / IC50 / Cc1cc(-c2ccc(CN3CCCC3)cc2)cc2c1nc(-c1ccc(S(C)(=O)=O)cc1)n2C [Example 395] : value?
Ans: 1360

Q: human TLR9 (Homo sapiens, UniProt Q9NR96) / IC50 / Cn1c(-c2ccc(S(C)(=O)=O)cc2)nc2ccc(C3CCN(C4CCCN(C5CCOCC5)CC4)CC3)c(F)c21 (centres unmarked) [Example 316] : value?
Ans: 14

Q: human TLR9 (Homo sapiens, UniProt Q9NR96) / IC50 / Cn1c(-c2ccc(S(C)(=O)=O)cc2)nc2cc(F)c(C3CCN(C4CC5CCC(C4)N5CC4CC4)CC3)cc21 (centres unmarked) [Example 230] : value?
Ans: 36

Q: human TLR9 (Homo sapiens, UniProt Q9NR96) / IC50 / Cc1cc(-c2ccc(OC3CCN(C(C)C)CC3)cc2)cc2c1nc(-c1ccc(S(C)(=O)=O)cc1)n2C [Example 416] : value?
Ans: 1190

Q: human TLR9 (Homo sapiens, UniProt Q9NR96) / IC50 / Cc1cc(-c2ccc(CN3C[C@@H]4CN(CC(C)C)C[C@@H]4C3)cc2)cc2c1nc(-c1ccc(S(C)(=O)=O)cc1)n2C [Example 396] : value?
Ans: 203

Q: human TLR9 (Homo sapiens, UniProt Q9NR96) / IC50 / Cc1cc(C2CCN(C3CCCN(C(C)C)CC3)CC2)cc2c1nc(-c1ccc(S(C)(=O)=O)cc1)n2C (centres unmarked) [Example 134] : value?
Ans: 20

Q: human TLR9 (Homo sapiens, UniProt Q9NR96) / IC50 / CC(C)CN1CCCC(N2CCC(c3ccc4nc(-c5ccc(S(C)(=O)=O)cc5)n(C)c4c3F)CC2)CC1 (centres unmarked) [Example 310] : value?
Ans: 46

Q: human TLR9 (Homo sapiens, UniProt Q9NR96) / IC50 / Cc1cc(C2CCN(C3CC4CCC(C3)N4C(C)C)CC2)cc2c1nc(-c1ccc(S(C)(=O)=O)cc1)n2C (single isomer, unassigned) [Example 85] : value?
Ans: 106

Q: human TLR9 (Homo sapiens, UniProt Q9NR96) / IC50 / CC(C)N1C2CCC1CC(N1CCC(c3ccc4c(nc(-c5ccc(S(C)(=O)=O)cc5)n4C)c3F)CC1)C2 (single isomer, unassigned) [Example 90] : value?
Ans: 231
